Source of measurements: the supplement of paper PMC10567573

B1: NCK2 (parent)
chain: YTGPSSSGRFAGREWYYGNVTRHQ

Variants of: B1
Assay: protein stability index of a GFP-peptide fusion (GPS, HEK-293T) (PSI 1-6); higher = more stable;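 also: lentivirally expressed fusions sorted by FACS into six bins by GFP to DsRed ratio, PSI derived from sequencing read proportions per bin multiplied by bin number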
Conditions: c terminus: a fixed tail appended
parameter: protein stability index
Reply briefly: the number, and no unit.

Note to self: protein stability index recorded for "V20T" was 1.75

Note to self: protein stability index recorded for "Y17M" was 1.87

Note to self: protein stability index recorded for "W15K" was 2.22

Note to self: protein stability index recorded for "G12L" was 2.25

Note to self: protein stability index recorded for "Y16F" was 2.26

Note to self: protein stability index recorded for "H23N" was 2.09

Note to self: protein stability index recorded for "S7L" was 2.11

Note to self: protein stability index recorded for "W15V" was 2.36

Note to self: protein stability index recorded for "F10E" was 2.95

Note to self: protein stability index recorded for "H23L" was 2.81

Note to self: protein stability index recorded for "H23T" was 1.46

Note to self: protein stability index recorded for "H23F" was 1.79

Note to self: protein stability index recorded for "A11V" was 1.62

Note to self: protein stability index recorded for "T21Q" was 1.78

Note to self: protein stability index recorded for "S7K" was 2.08

Note to self: protein stability index recorded for "G12K" was 2.32

Note to self: protein stability index recorded for "R13K" was 2.02

Note to self: protein stability index recorded for "Y1S" was 2.12

Note to self: protein stability index recorded for "F10V" was 2.13

Note to self: protein stability index recorded for "V20R" was 2.42

Note to self: protein stability index recorded for "Y1G" was 2.46

Note to self: protein stability index recorded for "R22K" was 1.46

Note to self: protein stability index recorded for "G8R" was 2.3

Note to self: protein stability index recorded for "R22G" was 2.62

Note to self: protein stability index recorded for "V20E" was 1.67

Note to self: protein stability index recorded for "S5H" was 1.92

Note to self: protein stability index recorded for "R9K" was 1.46

Note to self: protein stability index recorded for "P4H" was 2.48

Note to self: protein stability index recorded for "A11H" was 2

Note to self: protein stability index recorded for "T21N" was 2.4

Note to self: protein stability index recorded for "G8V" was 1.48

Note to self: protein stability index recorded for "R13P" was 1.97

Note to self: protein stability index recorded for "E14P" was 1.87

Note to self: protein stability index recorded for "E14M" was 1.64

Note to self: protein stability index recorded for "H23R" was 1.53

Note to self: protein stability index recorded for "S5K" was 1.7

Note to self: protein stability index recorded for "R22L" was 1.56

Note to self: protein stability index recorded for "Y17I" was 3.41

Note to self: protein stability index recorded for "T2F" was 2.04

Note to self: protein stability index recorded for "Y1C" was 2.01

Note to self: protein stability index recorded for "S6L" was 1.77

Note to self: protein stability index recorded for "S5D" was 1.96

Note to self: protein stability index recorded for "G3N" was 2.17

Note to self: protein stability index recorded for "A11G" was 2.44

Note to self: protein stability index recorded for "G12E" was 1.49

Note to self: protein stability index recorded for "G3A" was 2.23
